- experiment: gradient 5% acetonitrile 3 min, to 50% in 2 min, to 85% in 15 min, held 3 min, 100 µL/min
- condition_details: column: Zorbax Extend-C18 2.1 x 50 mm; eluents: water / acetonitrile, 0.1% formic acid
Please respond with reported RP-LC retention time for every item in the list.
Record the value in s, omitting the unit from your answer.

Q: Look up RP-LC retention time for this compound: CCn1c(=O)c2c(cc(C)n2C)n(CC(=O)Nc2ccc(C)cc2Cl)c1=O
Result: 871

Q: Look up RP-LC retention time for this compound: CCCNC(=O)N1CCN(c2nc3ccccc3n(Cc3ccccc3)c2=O)CC1
Result: 863

Q: Look up RP-LC retention time for this compound: Cc1ccc(C(=O)N2CCCCCCN(C)C(=O)[C@@H]3CCC[C@@H]32)s1
Result: 912

Q: Look up RP-LC retention time for this compound: CCN1CCN(S(=O)(=O)c2cc(-c3nc(C(C)C)cs3)sc2C)CC1
Result: 744

Q: Look up RP-LC retention time for this compound: CCOc1ccc(-c2ccc(C)c(NC(=O)c3ccc(S(=O)(=O)N(C)C)cc3)c2)nn1
Result: 778

====

- experiment: gradient 5% acetonitrile 3 min, to 50% in 2 min, to 85% in 15 min, held 3 min, 100 µL/min
- condition_details: column: Zorbax Extend-C18 2.1 x 50 mm; eluents: water / acetonitrile, 0.1% formic acid
Please respond with reported RP-LC retention time for every item in the list.

Q: Look up RP-LC retention time for this molecule: CCc1noc2nc(C)n(CC(=O)NCc3ccc(OC)cc3)c(=O)c12
Result: 755 s

Q: Look up RP-LC retention time for this molecule: O=c1c2cc(-c3ccc(F)cc3)nn2ccn1Cc1nc(-c2cccc(Br)c2)no1
Result: 1150 s

Q: Look up RP-LC retention time for this molecule: O=[N+]([O-])c1cn2c(n1)OC[C@@H](OCc1ccc(OC(F)(F)F)cc1)C2
Result: 916 s

Q: Look up RP-LC retention time for this molecule: CCN(CC)S(=O)(=O)N1CCC(C(=O)Nc2cccc(CCc3nc4ccc(C)cc4[nH]3)c2)CC1
Result: 708 s

Q: Look up RP-LC retention time for this molecule: Cc1ccc(NC(=O)N2CCCC2c2nc(-c3ccc(F)cc3F)no2)cc1 (centres undefined)
Result: 972 s

Q: Look up RP-LC retention time for this molecule: Cc1ccc2c(c1)N(C(=O)Cn1cnc3nc4c(cc3c1=O)CCCC4)CCO2
Result: 782 s

Q: Look up RP-LC retention time for this molecule: CCc1ccc(N2C(=O)CN(S(C)(=O)=O)CC2(C)C(=O)NCc2ccccc2)cc1 (centres undefined)
Result: 809 s

Q: Look up RP-LC retention time for this molecule: CCSc1nnc(-c2nn(C)c3c2CN(S(=O)(=O)c2ccc(F)c(C)c2)CC3)n1CC
Result: 978 s

Q: Look up RP-LC retention time for this molecule: COc1cc(F)ccc1-c1ccnc2nc(C3CCC3)nn12
Result: 864 s

Q: Look up RP-LC retention time for this molecule: COc1ccc(NC(=O)N2[C@H]3CC[C@@H]2c2cncnc2C3)c(C)c1
Result: 634 s

Q: Look up RP-LC retention time for this molecule: COC(=O)CNC(=O)Nc1ncc(-c2ccc(OC)cc2)n1C
Result: 607 s

Q: Look up RP-LC retention time for this molecule: O=[N+]([O-])c1ccc(S(=O)(=O)N2CCN(c3ccc(NCC4CCCO4)nn3)CC2)cc1 (centres undefined)
Result: 568 s

Q: Look up RP-LC retention time for this molecule: CCCCN(C(=O)C1CC1)C1CCS(=O)(=O)C1 (centres undefined)
Result: 665 s

Q: Look up RP-LC retention time for this molecule: CSc1ccc(-c2nc3cnccn3c2Nc2ccc(C)cc2)cc1
Result: 1000 s

Q: Look up RP-LC retention time for this molecule: O=C(NCCCn1nc(-c2ccc(F)cc2)ccc1=O)c1cccc(-n2cnnn2)c1
Result: 683 s

Q: Look up RP-LC retention time for this molecule: COc1cc([C@@H]2c3cc4c(cc3[C@H](O)[C@@H](CO)[C@@H]2C(=O)NCCCN(C)C2CCCCC2)OCO4)cc(OC)c1OC
Result: 573 s

Q: Look up RP-LC retention time for this molecule: CC(=O)N1CCc2sc(S(=O)(=O)N3CCN(c4ccccc4Cl)CC3)cc2C1
Result: 945 s

Q: Look up RP-LC retention time for this molecule: CCN(CC)C(=O)c1ccc2c(c1)N(CC(=O)NC1CCCC1)C(=O)C1CCCCN21 (centres undefined)
Result: 789 s

Q: Look up RP-LC retention time for this molecule: CN(C)CC(=O)N1CCC(Oc2nccnc2N2CCOCC2)C1 (centres undefined)
Result: 561 s
